The origin of these recorded values is patent US11014908B2.

# MEASUREMENT TARGET: purified sickle cell hemoglobin (HbS) (Homo sapiens, UniProt P68871+P69905, E7V)
# Construct: HbS was obtained from the blood of homozygous S/S patients
# ASSAY EXPLANATION: Binding affinity to purified HbS by Surface Plasmon Resonance (SPR)
# MEASUREMENT SETUP: crosslinked biotinylated HbS, 1:1 binding model
Entries and their measured Kd follow.
QUANTITY KIND: Kd (nM)

>>> test_value("Cc1cc2nc(N)c(O[C@@H](C)c3nc4[nH]ncc4cc3-n3cccn3)cc2cn1")
36
>>> test_value("C[C@H](Oc1cc2cc(F)cc(F)c2nc1N)c1cc(C(=O)O)ccc1-n1cccn1")
37
>>> test_value("C[C@H](Oc1cc2cc(F)ccc2nc1N)c1cc(CCC(=O)O)ccc1-n1cccn1")
188
>>> test_value("C[C@H](O)c1ccc2nc(N)c(O[C@@H](C)c3nc(O)ccc3-n3cccn3)cc2c1")
10000

---

Below, each entry is listed with its recorded log10 of Kd.
# MEASUREMENT TARGET: purified sickle cell hemoglobin (HbS) (Homo sapiens, UniProt P68871+P69905, E7V)
# Construct: HbS was obtained from the blood of homozygous S/S patients
# ASSAY EXPLANATION: Binding affinity to purified HbS by Surface Plasmon Resonance (SPR)
# MEASUREMENT SETUP: crosslinked biotinylated HbS, 1:1 binding model
QUANTITY KIND: log10 of Kd (log10 of the value in nM)

>>> test_value("C[C@H](Oc1cc2cc(F)cc(F)c2nc1N)c1cc(-c2noc(=O)[nH]2)ccc1-n1cccn1")
1.56
>>> test_value("C[C@H](Oc1cc2cc(Br)ccc2nc1N)c1ncccc1-n1cccn1")
2.20
>>> test_value("C[C@H](Oc1cc2cc(F)cc(F)c2nc1N)c1ncc(F)cc1-n1cccn1")
1.65
>>> test_value("C[C@H](Oc1cc2cc(F)ccc2nc1N)c1cc(C(=O)N[C@H]2C[C@H](O)C2)ccc1-n1cccn1")
1.61
>>> test_value("C[C@H](Oc1cc2cc(F)ccc2nc1N)c1ncc(F)cc1-n1cccn1")
1.53
>>> test_value("C[C@H](Oc1cc2cc(C(N)=O)cc(F)c2nc1N)c1ncc(F)cc1-n1cccn1")
1.83
>>> test_value("C[C@H](Oc1cc2cc(C(N)=O)ccc2nc1N)c1ncccc1-n1cccn1")
3.18
>>> test_value("C[C@H](Oc1cc2ccccc2nc1N)c1ncc(F)cc1-n1cccn1")
2.27

---

# ASSAY EXPLANATION: Single dose study in sickle Townes mice: exposure in whole blood
# Type: in vivo
# MEASUREMENT SETUP: male, Townes (sickle cell disease model), mouse, single dose 5 mg/kg oral gavage, SCD mice, n=3
QUANTITY KIND: concentration at 0.5 h

>>> test_value("C[C@H](Oc1cc2cc(C(N)=O)ccc2nc1N)c1ncc(F)cc1-n1cccn1")
"7.4 µM"

---

# MEASUREMENT TARGET: purified sickle cell hemoglobin (HbS) (Homo sapiens, UniProt P68871+P69905, E7V)
# Construct: HbS was obtained from the blood of homozygous S/S patients
# ASSAY EXPLANATION: Binding affinity to purified HbS by Surface Plasmon Resonance (SPR)
# MEASUREMENT SETUP: crosslinked biotinylated HbS, 1:1 binding model
Mark class 1 only when Kd stays strictly below 70 nM. Values equal to the cut-off are class 0.

>>> cat("C[C@H](Oc1cc2cc(C(N)=O)ccc2nc1N)c1nc(OCCO)ccc1-n1cccn1")
"class 0"
>>> cat("C[C@H](Oc1cc2cc(F)ccc2nc1N)c1cc(S(N)(=O)=O)ccc1-n1cccn1")
"class 0"
>>> cat("C[C@H](Oc1cc2cc(F)ccc2nc1N)c1cc(OCC(=O)O)ccc1-n1cccn1")
"class 1"
>>> cat("C[C@H](Oc1cc2cc(F)ccc2nc1N)c1cc(C(=O)O)c(F)cc1-n1cccn1")
"class 0"
>>> cat("C[C@H](Oc1cc2cc(C(N)=O)ccc2nc1N)c1nc2[nH]ncc2cc1-n1cccn1")
"class 1"
>>> cat("C[C@H](Oc1cc2cc(CO)ccc2nc1N)c1nc(O)ccc1-n1cccn1")
"class 0"
>>> cat("COc1ccc(-n2cccn2)c([C@H](C)Oc2cc3cc(F)ccc3nc2N)n1")
"class 0"
>>> cat("C[C@H](Oc1cc2cc(F)c(Cl)cc2nc1N)c1nc(C(N)=O)ccc1-n1cccn1")
"class 1"
>>> cat("C[C@H](Oc1cc2cc(F)ccc2nc1N)c1cc(C(=O)O)ccc1-n1cccn1")
"class 0"
>>> cat("Cc1nc2cc(-n3cccn3)c([C@H](C)Oc3cc4cc(F)ccc4nc3N)cc2[nH]1")
"class 0"
>>> cat("C[C@H](Oc1cc2cc(F)ccc2nc1N)c1cc(-c2n[nH]c(=O)o2)ccc1-n1cccn1")
"class 1"
>>> cat("C[C@H](Oc1cc2cc(C#N)ccc2nc1N)c1ncc(F)cc1-n1cccn1")
"class 0"
>>> cat("C[C@H](Oc1cc2cc(Br)ccc2nc1N)c1cc(C(N)=O)ccc1-n1cccn1 (single isomer, unassigned)")
"class 1"
